- Test Name: In vitro metabolic stability in mouse liver microsomes
- Assay type: in vitro ADME
Endpoint: microsomal stability and clearance

>  <Record Smiles>
CCN1CCN(Cc2ccc(NC(=O)c3cc(Cl)cc(NC(=O)c4cccnc4)c3)cc2C(F)(F)F)CC1

>  <Result>
metabolized rapidly

$$$$
>  <Record Smiles>
CCN1CCN(Cc2ccc(NC(=O)c3cncc(NC(=O)c4cncc(-c5cccs5)c4)c3)cc2C(F)(F)F)CC1

>  <Result>
metabolized rapidly

$$$$

// provenance: paper PMC10950204
